B1: Azoarcus group I ribozyme (parent)
chain: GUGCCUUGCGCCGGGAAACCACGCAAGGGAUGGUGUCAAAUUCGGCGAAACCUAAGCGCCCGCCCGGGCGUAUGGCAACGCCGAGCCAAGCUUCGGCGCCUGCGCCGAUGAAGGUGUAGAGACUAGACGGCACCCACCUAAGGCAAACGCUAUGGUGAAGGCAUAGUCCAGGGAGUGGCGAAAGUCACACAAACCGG

# Variants of: B1
# assay_method_text: reverse-splicing fitness (ratio to wild type); higher = more active; in vitro selection; Mg2+ level not given
reverse-splicing fitness: recorded values
assay_endpoint: reverse-splicing fitness

C82A A111C A145U C150U C169G U176G : 0.00855
A111C A120G A145C C150A C169G U176A : 0.024
C82G A120U A145G C169A U176C : 0.00321
C82U A111U A120G A145U C150U C169G U176C : 0.0134
C82U A111G A120G A145U C150A C169G U176A : 0.0124
C82A A111C A120U A145U C150A C169G : 0.00349
A111C A120G A145C C150A C169U U176G : 0.00392
A111G A120U C150A : 0.112
A111U A120U A145C C150U C169U U176A : 0.0036
